target: human GLP-1R (Homo sapiens, UniProt P43220, G168S); test: CHO GLP-1R Clone H6 cAMP HTRF agonist assay (Assay 1, high receptor density); type: cell-based; conditions: CHO GLP-1R clone H6; arithmetic mean, relative to saturating GLP-1 (1 μM); read-out: Assay 1 Emax (%)
Sequence (P43220 24-463 G168S): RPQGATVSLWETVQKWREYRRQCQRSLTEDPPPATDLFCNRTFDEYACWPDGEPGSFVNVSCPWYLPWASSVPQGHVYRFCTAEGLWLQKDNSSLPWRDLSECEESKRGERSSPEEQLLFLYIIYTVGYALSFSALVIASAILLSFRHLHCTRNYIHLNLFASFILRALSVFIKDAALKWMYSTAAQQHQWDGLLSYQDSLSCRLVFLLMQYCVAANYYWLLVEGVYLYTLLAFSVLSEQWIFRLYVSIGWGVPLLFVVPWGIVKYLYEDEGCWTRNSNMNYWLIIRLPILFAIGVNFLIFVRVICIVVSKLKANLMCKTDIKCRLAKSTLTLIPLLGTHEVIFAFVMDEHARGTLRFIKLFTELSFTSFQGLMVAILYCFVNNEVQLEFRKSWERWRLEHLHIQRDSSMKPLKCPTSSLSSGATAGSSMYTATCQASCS
So I've got a bunch of compounds here, and I need their Emax values.
Dear colleague, please return just the value in %, with no unit written.

Note to self: Emax recorded for CC(F)(F)Cn1c(CN2CCC(c3cccc(OCc4ccc(Cl)cc4F)n3)CC2)nc2ccc(C(=O)O)cc21 [Compound 302B] was 80

Form field Emax, entry C[C@H]1CN(c2cccc(OCc3ccc(C#N)cc3F)n2)CCN1Cc1nc2ccc(C(=O)O)cc2n1C[C@H]1CCOC1 [Compound 267B] : 100

Noted for O=C(O)c1ccc2nc(CN3CCC(c4cccc(OCc5ccc(Cl)cc5F)n4)CC3)n(CCN3CCOCC3)c2c1 [Compound 325B] : its Emax reads 87

Emax measured on N#Cc1ccc(COc2cccc(C3CCN(Cc4nc5ccc(C(=O)O)cc5n4C[C@@H]4CCO4)CC3)n2)cc1 [Compound 130B] = 84

Briefly, Emax measured for O=C(O)c1ccc2nc(CN3CCC(c4cccc(OCc5ccc(F)cc5F)n4)CC3)n(C[C@@H]3CCO3)c2n1 [Compound 118B] : 76

Data point: Cc1cc(Cn2c(CN3CCC(c4cccc(OCc5ccc(Cl)cc5F)n4)CC3)nc3ccc(C(=O)O)cc32)on1 [Compound 322B] ; Emax = 97

Reported Emax of C[C@H]1CN(c2cccc(OCc3ccc(Cl)cc3F)n2)CCN1Cc1nc2ccc(C(=O)O)cc2n1Cc1ncco1 [Compound 148B] : 74

// Emax lookup, compound = Cc1cc(Cn2c(CN3CCC(c4cccc(OCc5ccc(Cl)cc5F)n4)CC3)nc3ccc(C(=O)O)cc32)no1 [Compound 310B] , result: 79

Note to self: Emax recorded for O=C(O)c1ccc2nc(CN3CCC(c4cccc(OCc5ccc(Cl)cc5F)n4)CC3)n(CC3CCOCC3)c2c1 [Compound 324B] was 79

* * *

Provide the recorded log10 EC50 for the entries that follow.
molecular target: human GLP-1R (Homo sapiens, UniProt P43220, G168S); assay: CHO GLP-1R Clone H6 cAMP HTRF agonist assay (Assay 1, high receptor density); type: cell-based; conditions: CHO GLP-1R clone H6, cAMP HTRF; geometric mean
Log scale reminder: EC50 in µM, then log10 taken.

# log10 EC50 (compound: COC[C@@H](C)n1c(CN2CCC(c3cccc(OCc4ccc(Cl)cc4F)n3)CC2)nc2ccc(C(=O)O)cc21 [Compound 321B] ) is 0.04

According to the records, this compound COCCn1c(CN2CCC(c3cccc(OCc4ccc(Cl)cc4F)n3)CC2)nc2ccc(C(=O)O)nc21 [Compound 213B] displays log10 EC50 of -0.41

Recorded log10 EC50 (compound O=C(O)c1ccc2nc(CN3CCC(c4cccc(OCc5ccc(Cl)cc5F)n4)CC3)n(CC3CCCOC3)c2c1 (stereo not shown) [Compound 315B] ): -0.36

Measured log10 EC50 of Cc1cc(Cn2c(CN3CCC(c4cccc(OCc5ccc(Cl)cc5F)n4)CC3)nc3ccc(C(=O)O)cc32)on1 [Compound 322B] : 0.15

Recorded result, CN1CC(Cn2c(CN3CCC(c4cccc(OCc5ccc(Cl)cc5F)n4)CC3)nc3ccc(C(=O)O)cc32)CC1=O (stereo not shown) [Compound 317B] , log10 EC50: -0.30

GET /value?item= CC1(C)CC(Cn2c(CN3CCC(c4cccc(OCc5ccc(Cl)cc5F)n4)CC3)nc3ccc(C(=O)O)cc32)O1 (stereo not shown) [Compound 235B] &field=log10 EC50 returns -0.41

Documented log10 EC50 of COCCn1c(CN2CCC(c3ccc(F)c(OCc4ccc(Cl)cc4F)n3)CC2)nc2ccc(C(=O)O)cc21 [Compound 178B] : 0.65

Query O=C(O)c1ccc2nc(CN3CCC(c4cccc(OCc5ccc(Cl)cc5F)n4)CC3)n(CCN3CCCOC3=O)c2c1 [Compound 305B] yields log10 EC50 of -0.72

* * *

For each entry below, report its pEC50 value.
target: human GLP-1R (Homo sapiens, UniProt P43220, G168S); test: CHO GLP-1R Clone H6 cAMP HTRF agonist assay (Assay 1, high receptor density); assay type: cell-based; details: CHO GLP-1R clone H6, cAMP HTRF; geometric mean
pEC50: −log10 of the molar value.

# molecule Cn1cncc1Cn1c(CN2CCC(c3cccc(OCc4ccc(C#N)cc4F)n3)CC2)nc2ccc(C(=O)O)nc21 [Compound 274B] ; its pEC50 = < 4.70

Lookup result for N#Cc1ccc(COc2cccc(C3CCN(Cc4nc5ccc(C(=O)O)cc5n4C[C@@H]4CCO4)CC3)n2)cc1 [Compound 130B] ; measured pEC50: < 4.96

Record summary for COC[C@H](C)n1c(CN2CCC(c3cccc(OCc4ccc(Cl)cc4F)n3)CC2)nc2ccc(C(=O)O)cc21 [Compound 320B] : reported pEC50 = 5.96

* * *

target: human GLP-1R (Homo sapiens, UniProt P43220, G168S); assay: CHO GLP-1R Clone H6 cAMP HTRF agonist assay (Assay 1, high receptor density); type: cell-based; conditions: CHO GLP-1R clone H6; arithmetic mean, relative to saturating GLP-1 (1 μM); read-out: Assay 1 Emax (%)
I'd be grateful if you could share measured Emax for these entries.
Report as a plain number; the unit % is understood.

Memo: COC[C@H](C)n1c(CN2CCC(c3cccc(OCc4ccc(Cl)cc4F)n3)CC2)nc2ccc(C(=O)O)cc21 [Compound 320B] , reported Emax: 65

Value of measured Emax for the entry Cn1c(CN2CCC(c3cccc(OCc4ccc(C(F)(F)F)cc4F)n3)CC2)nc2ccc(C(=O)O)cc21 [Compound 222B] : 72

Emax in this record for Cn1c(CN2CCC(c3cccc(OCc4ccc(F)cc4F)n3)CC2)nc2ccc(C(=O)O)cc21 [Compound 223B] : 69

Looking up CC1(C)CC(Cn2c(CN3CCC(c4cccc(OCc5ccc(Cl)cc5F)n4)CC3)nc3ccc(C(=O)O)cc32)O1 (stereo not drawn) [Compound 235B] , I found its Emax recorded as 72

In plain terms, O=C(O)c1ccc2nc(CN3CCC(c4cccc(OCc5ccc(Cl)cc5F)n4)CC3)n(CC3CC(F)(F)C3)c2c1 [Compound 326B] has a documented Emax of 71

Given item C[C@H]1CN(c2cccc(OCc3ccc(Cl)cc3F)n2)CCN1Cc1nc2ccc(C(=O)O)cc2n1Cc1cnco1 [Compound 147B] , the value recorded as its Emax is 79

For record CC1(Cn2c(CN3CCC(c4cccc(OCc5ccc(Cl)cc5F)n4)CC3)nc3ccc(C(=O)O)cc32)CCO1 (stereo not drawn) [Compound 265B] the listed Emax is 100

Consider COC[C@@H](C)n1c(CN2CCC(c3cccc(OCc4ccc(Cl)cc4F)n3)CC2)nc2ccc(C(=O)O)cc21 [Compound 321B] . Its measured Emax is 81

Given item COCCn1c(CN2CCC(c3cccc(OCc4ccc(C#N)cc4)n3)CC2)nc2ccc(C(=O)O)c(F)c21 [Compound 169B] , the value recorded as its Emax is 78

Briefly, Emax measured for CN1CCC[C@@H]1Cn1c(CN2CCC(c3cccc(OCc4ccc(Cl)cc4F)n3)CC2)nc2ccc(C(=O)O)cc21 [Compound 309B] : 66

// recorded Emax for COCCn1c(CN2CCN(c3cccc(OCc4ccc(C#N)cc4)n3)CC2)nc2ccc(C(=O)O)cc21 [Compound 171B] : 79

For reference, reported Emax for CCc1noc(Cn2c(CN3CCC(c4cccc(OCc5ccc(Cl)cc5F)n4)CC3)nc3ccc(C(=O)O)cc32)n1 [Compound 264B] stands at 85

# Emax of O=C(O)c1cnc2nc(CN3CCC(c4cccc(OCc5ccc(Cl)cc5F)n4)CC3)n(CC(F)(F)F)c2c1 [Compound 212B] = 71

Value of Emax reported for the molecule COCCn1c(CN2CCC(c3cccc(OCc4ccc(Cl)cc4F)n3)CC2)nc2ccc(C(=O)O)nc21 [Compound 213B] is 82

Value of Emax reported for the molecule O=C(O)c1ccc2nc(CN3CCN(c4cccc(OCc5ccc(Cl)cc5F)n4)CC3)n(C[C@@H]3CCO3)c2c1 [Compound 119B] is 66

The molecule COCCn1c(CN2CCN(c3nc(OCc4ccc(Cl)cc4F)ccc3F)C[C@@H]2C)nc2ccc(C(=O)O)cc21 [Compound 180B] showed Emax equal to 100

Consider COCCn1c(CN2CCC(c3cccc(OCc4ccccc4)n3)CC2)nc2ccc(C(=O)O)cc21 [Compound 181B] . Its measured Emax is 68

Lookup result for O=C(O)c1ccc2nc(CN3CCC(c4cccc(OCc5ccc(Cl)cc5F)n4)CC3)n(CC3CCCOC3)c2c1 (stereo not drawn) [Compound 315B] ; measured Emax: 86

* * *

molecular target: human GLP-1R (Homo sapiens, UniProt P43220, G168S); experiment: CHO GLP-1R Clone H6 cAMP HTRF agonist assay (Assay 1, high receptor density); type: cell-based; settings: CHO GLP-1R clone H6, cAMP HTRF; geometric mean
quantityName: log10 EC50 (log10 of the value in nM)
Log10 applied to EC50; unit prior to transform: nM.

// field: log10 EC50; key: O=C(O)c1ccc2nc(CN3CCC(c4cccc(OCc5ccc(Cl)cc5F)n4)CC3)n(CC3CC(F)(F)C3)c2c1 [Compound 326B] ; value = 3.40

Input O=C(O)c1ccc2nc(CN3CCN(c4cccc(OCc5ccc(Cl)cc5F)n4)CC3)n(C[C@@H]3CCO3)c2c1 [Compound 119B] . Output log10 EC50: 2.32

Recorded log10 EC50 (compound O=C(O)c1ccc2nc(CN3CCC(c4cccc(OCc5ccc(Cl)cc5F)n4)CC3)n(Cc3cnc[nH]3)c2c1 [Compound 312B] ): 2.58

response.value for Cc1ccccc1COc1cccc(C2CCN(Cc3nc4ccc(C(=O)O)cc4n3C)CC2)n1 [Compound 230B] (field: log10 EC50) = 3.23

Kindly note the recorded log10 EC50 for COC1(Cn2c(CN3CCC(c4cccc(OCc5ccc(Cl)cc5F)n4)CC3)nc3ccc(C(=O)O)cc32)CCC1 [Compound 177B] , which is 2.94

Entry under test: C[C@H]1CN(c2cccc(OCc3ccc(Cl)cc3F)n2)CCN1Cc1nc2ccc(C(=O)O)cc2n1Cc1ncco1 [Compound 148B] . Its log10 EC50 was 2.53

The compound listed as CCn1ccnc1Cn1c(CN2CCC(c3cccc(OCc4ccc(Cl)cc4F)n3)CC2)nc2ccc(C(=O)O)cc21 [Compound 314B] shows log10 EC50 equal to 2.59

// sample COCCn1c(CN2CCN(c3cccc(OCc4ccc(C#N)cc4)n3)CC2)nc2ccc(C(=O)O)cc21 [Compound 171B] , its log10 EC50 was 2.30

Looking up Cn1cc(Cn2c(CN3CCC(c4cccc(OCc5ccc(Cl)cc5F)n4)CC3)nc3ccc(C(=O)O)cc32)nn1 [Compound 311B] , I see its log10 EC50 listed as 2.54

Query O=C(O)c1ccc2nc(CN3CCC(c4cccc(OCc5ccc(Cl)cc5F)n4)CC3)n(CCn3cccn3)c2c1 [Compound 303B] yields log10 EC50 of 2.23

Short answer for O=C(O)c1cnc2nc(CN3CCC(c4cccc(OCc5ccc(Cl)cc5F)n4)CC3)n(CC(F)(F)F)c2c1 [Compound 212B] : log10 EC50 was 2.28

Source of measurements: patent US20250235460A1
